Target: Adenosine receptor A2a (Homo sapiens)
Sequence (P29274 whole entry): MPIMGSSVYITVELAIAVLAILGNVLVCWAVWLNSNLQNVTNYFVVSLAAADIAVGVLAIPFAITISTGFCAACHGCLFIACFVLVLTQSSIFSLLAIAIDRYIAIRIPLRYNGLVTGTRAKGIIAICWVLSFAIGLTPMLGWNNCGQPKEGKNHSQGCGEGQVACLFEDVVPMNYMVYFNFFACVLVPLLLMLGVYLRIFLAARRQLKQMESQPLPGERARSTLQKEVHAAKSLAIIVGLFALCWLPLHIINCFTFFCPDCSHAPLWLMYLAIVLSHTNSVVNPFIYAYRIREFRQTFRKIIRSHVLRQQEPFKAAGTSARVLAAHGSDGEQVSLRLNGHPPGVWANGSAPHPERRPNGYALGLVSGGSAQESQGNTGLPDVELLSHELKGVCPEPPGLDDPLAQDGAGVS
Experiment: Displacement of [3H]NECA from human adenosine A2A receptor expressed in CHO cells
Type: cell-based
measured endpoint: pKi
One number for each entry, as −log10 of the molar value.

chemical string | experimental result
CCCn1c(Br)nc2c(N)nc(NCCc3ccccc3)nc21 | 7.57

Field: pKi. Fill in for each record below.
1. CCCn1cnc2c(NCCCc3ccccc3)ncnc21
2. CCCn1c(-c2ccco2)nc2c(N)nc(NCCCc3ccccc3)nc21

Key:
1. 4.89
2. 6.95

Field: pKi. Fill in for each record below.
1. CCCn1c(Br)nc2c(NCCc3ccccc3)ncnc21
2. CCCn1c(Br)nc2c(NCc3ccccc3)ncnc21

Key:
6.30
5.93
